Molecular target: ARNT (Homo sapiens)
Construct: an sgRNA targeting the C-terminus of the ARNT gene near the stop codon; endogenous in cells; host or cells: HEK293 ARNT-HiBiT knock-in, homozygous clone
Sequence (P27540 whole entry): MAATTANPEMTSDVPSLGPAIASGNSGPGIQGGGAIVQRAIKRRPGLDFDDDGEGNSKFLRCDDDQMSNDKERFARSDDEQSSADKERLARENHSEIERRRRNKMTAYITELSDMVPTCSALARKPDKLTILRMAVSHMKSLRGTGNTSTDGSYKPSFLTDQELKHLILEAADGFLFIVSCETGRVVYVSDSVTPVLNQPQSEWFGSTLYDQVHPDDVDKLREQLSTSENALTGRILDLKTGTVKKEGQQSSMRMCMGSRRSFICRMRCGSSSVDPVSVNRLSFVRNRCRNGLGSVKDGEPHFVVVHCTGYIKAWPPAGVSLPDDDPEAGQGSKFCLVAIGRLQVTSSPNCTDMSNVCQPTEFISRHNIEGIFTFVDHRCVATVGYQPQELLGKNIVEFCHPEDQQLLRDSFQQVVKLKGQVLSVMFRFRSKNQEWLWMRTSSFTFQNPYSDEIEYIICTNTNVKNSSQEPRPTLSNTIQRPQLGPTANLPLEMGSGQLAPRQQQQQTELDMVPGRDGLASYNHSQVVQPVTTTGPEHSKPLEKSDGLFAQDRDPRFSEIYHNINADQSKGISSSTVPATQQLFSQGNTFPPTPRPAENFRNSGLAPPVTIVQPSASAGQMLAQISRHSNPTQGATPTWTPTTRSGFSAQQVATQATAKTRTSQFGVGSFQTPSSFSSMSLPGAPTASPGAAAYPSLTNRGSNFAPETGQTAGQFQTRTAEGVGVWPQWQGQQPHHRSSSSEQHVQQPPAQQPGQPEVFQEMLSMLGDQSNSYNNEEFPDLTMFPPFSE
Experiment: ARNT degradation in a HiBiT system (HEK293 ARNT-HiBiT Knock-In cell line)
Assay type: cell-based
Conditions: half-maximal degradation concentration; HEK293 ARNT-HiBiT KI cells, 4h of treatment, luminescence
measurement-name: DC50 (nM)

a. C[C@@H]1c2cc(C(=O)N3Cc4c(ccc(C(F)(F)F)c4F)[C@@H]3C)ccc2C(=O)N1[C@H]1CCC(=O)NC1=O
b. C[C@@H]1c2cc(C(=O)N3Cc4cc(C(F)(F)F)ccc4[C@@H]3CN(C)C)ccc2C(=O)N1[C@H]1CCC(=O)NC1=O
c. C[C@@H]1c2cc(C(=O)N3Cc4c(ccc(Cl)c4F)[C@@H]3CN3CCC3)ccc2C(=O)N1[C@H]1CCC(=O)NC1=O
Incoming: Put the items in order so that reported DC50 rises from first to last. Answer by writing out the labels in the requested order.
Outgoing: b, c, a

###

Biological target: ARNT (Homo sapiens)
Construct: an sgRNA targeting the C-terminus of the ARNT gene near the stop codon; endogenous in cells; host or cells: HEK293 ARNT-HiBiT knock-in, homozygous clone
Experiment: ARNT degradation in a HiBiT system (HEK293 ARNT-HiBiT Knock-In cell line)
Type: cell-based
Conditions: half-maximal degradation concentration; HEK293 ARNT-HiBiT KI cells, 4h of treatment, luminescence
measurement-name: DC50 (nM)

compound: C[C@@H]1c2c(ccc(C(=O)N3Cc4ccccc4[C@@H]3CN(C)C)c2F)C(=O)N1[C@H]1CCC(=O)NC1=O [Compound 29]
uom: nM
DC50: 1.8
//
compound: C[C@H]1c2ccc(Cl)c(F)c2CN1C(=O)c1ccc2c3c(cccc13)N(C1CCC(=O)NC1=O)C2=O (some centres unmarked) [Compound 5]
uom: nM
DC50: 0.42
//
compound: Cc1ccc2c(c1F)CN(C(=O)c1ccc3c(c1)[C@@H](C)N([C@H]1CCC(=O)NC1=O)C3=O)[C@H]2C [Compound 26]
uom: nM
DC50: 1.7

1. C[C@@H]1c2cc(C(=O)N3Cc4ccc(F)cc4[C@@H]3C)ccc2C(=O)N1[C@H]1CCC(=O)NC1=O [Compound 27]
2. C[C@@H]1c2cc(C(=O)N3Cc4c(ccc(C(F)(F)F)c4Cl)[C@@H]3C)ccc2C(=O)N1[C@H]1CCC(=O)NC1=O [Compound 34]
Incoming: Kindly compare 1 with 2 and tell me which has the lower DC50 figure. Provide the label of your selected option as the answer.
Outgoing: 1
(1: 1.7 nM, 2: 3.1 nM)

###

Molecular target: ARNT (Homo sapiens)
Construct: an sgRNA targeting the C-terminus of the ARNT gene near the stop codon; endogenous in cells; host or cells: HEK293 ARNT-HiBiT knock-in, homozygous clone
Test: ARNT degradation in a HiBiT system (HEK293 ARNT-HiBiT Knock-In cell line)
Assay type: cell-based
Conditions: half-maximal degradation concentration; HEK293 ARNT-HiBiT KI cells, 4h of treatment, luminescence
Protocol: Compounds of Formula (I) were tested for ARNT degradation in a HiBiT system. A HEK293 ARNT-HiBiT Knock-In cell line was generated using CRISPR/Cas9 technology. […] Luminescence was measured on a plate reader 15 min after incubation with the detection reagent. Data were analyzed using the Genedata Screener Software version 19, and normalization was performed using the DMSO treated wells as Neutral Control and medium only (without cells) wells as Scale Reference. […]
measurement-name: DC50 (nM)

molecule: Cc1ccc2c(c1F)CN(C(=O)c1cc3c(cc1F)C(=O)N([C@H]1CCC(=O)NC1=O)[C@@H]3C)[C@H]2C [Compound 25]
DC50, nM: 1.6
//
molecule: C[C@@H]1c2cc(C(=O)N3Cc4c(ccc(Cl)c4F)[C@@H]3CN3CC4CC3C4)ccc2C(=O)N1[C@H]1CCC(=O)NC1=O [Compound 7]
DC50, nM: 0.48
//
molecule: C[C@@H]1c2cc(C(=O)N3Cc4cc(C(F)(F)F)ccc4[C@@H]3C)ccc2C(=O)N1[C@H]1CCC(=O)NC1=O [Compound 31]
DC50, nM: 2.2

1. C[C@@H]1c2cc(C(=O)N3Cc4c(ccc(Cl)c4F)[C@@H]3CN3CCCC3)ccc2C(=O)N1[C@H]1CCC(=O)NC1=O [Compound 4]
2. C[C@@H]1c2cc(C(=O)N3Cc4c(ccc(Cl)c4F)[C@@H]3C)ccc2C(=O)N1[C@H]1CCC(=O)NC1=O [Compound 30]
3. C[C@H]1c2ccc(Br)c(F)c2CN1C(=O)c1ccc2c(c1)CN(C1CCC(=O)NC1=O)C2=O (stereo partly shown) [Compound 36]
4. Cc1c(C2CC2)ccc2c1CN(C(=O)c1ccc3c(c1)[C@@H](C)N([C@H]1CCC(=O)NC1=O)C3=O)[C@H]2C [Compound 18]
Incoming: Number of molecules to sort: 4. Sort criterion: DC50, ascending. Answer by writing out the labels in the requested order.
Outgoing: 1, 4, 2, 3
